system: S. cerevisiae tim10 strain, luminescence counterscreen; assay: TIM10 strain luminescence inhibitors – S. cerevisiae, uHTS hits, counter-screen for tim23-1 inhibitor project, dose response (AID 504672);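 further: yeast grew roughly 22 hours at 25 °C before the luminescence read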
pIC50: −log10 of the molar value.
Lab note: compare pIC50 against 5. Equal or greater, write fulfilled. Smaller, write not fulfilled.

Before answering, review these 7 worked examples.
# Compound Structure String, Class
rows = [
    ("O=C(Nc1ccc2nc(-c3ccc(Br)o3)[nH]c2c1)c1ccco1", "fulfilled"),
    ("COc1ccc(/C=C/C(=O)Nc2ccc3c(c2)CCC3)cc1OC", "not fulfilled"),
    ("O=C(Oc1cccc2c(O)cccc12)c1ccccc1", "fulfilled"),
    ("NC(=S)N/N=C/c1coc2ccc(Br)cc2c1=O", "fulfilled"),
    ("O=C(NCCCc1ccccc1)Nc1cccc(Cl)c1", "fulfilled"),
    ("Cc1[nH][nH]c(=O)c1C(c1ccc(-c2ccc(F)cc2)o1)c1c(C)[nH][nH]c1=O", "not fulfilled"),
    ("O=C(Nc1ccc(C(=O)N2CCCc3ccccc32)cc1)c1cccs1", "not fulfilled"),
]

Now let's try a different one.
Quick check: does `Cc1ccc2nc(NC(=O)Cn3nc(C)c([N+](=O)[O-])c3C)sc2c1` have pIC50 greater than or equal to 5? not fulfilled
